Molecular target: GR complex
Test: [35S]TBPS binding assay (inhibition of [35S]TBPS binding, cerebral cortex P2 homogenate)
Parameters: species or system rat
Details: 2 nM [35S]TBPS, rat cerebral cortex P2 homogenate
IC50 listing for selected molecules.
State just the number; it will be interpreted in µM.

- C[C@@]1(O)CC[C@@]2(C)[C@@H](CC[C@@H]3[C@@H]2CC[C@]2(C)[C@@H](C(=O)Cn4ccnn4)CC[C@@H]32)C1: 0.136

Exercise: Give reported IC50 for CC(=O)[C@H]1CC[C@H]2[C@@H]3CC[C@@H]4C[C@@](O)(C#Cc5ccc(Cl)cc5)CC[C@]4(C)[C@H]3CC[C@]12C (GR complex)
Solution: 0.058

Exercise: Give reported IC50 for CC12CCC(O)CC1CCC1C2CCC2(C)C(C(=O)Cn3ccnc3C=O)CCC12 (centres unmarked) (GR complex)
Solution: 0.213

Exercise: Give reported IC50 for COc1ccc(CC[C@@]2(O)CC[C@@]3(C)[C@H](CC[C@@H]4[C@@H]3CC[C@]3(C)[C@@H](C(C)=O)CC[C@@H]43)C2)cc1OC (GR complex)
Solution: 0.507

Exercise: Give reported IC50 for CC(=O)[C@H]1CC[C@H]2[C@@H]3CC[C@@H]4C[C@@](O)(C#Cc5ccc(C(F)(F)F)cc5)CC[C@]4(C)[C@H]3CC[C@]12C (GR complex)
Solution: 0.052

Exercise: Give reported IC50 for CC(=O)[C@H]1CC[C@H]2[C@@H]3CC[C@@H]4C[C@@](O)(C#Cc5cccnc5)CC[C@]4(C)[C@H]3CC[C@]12C (GR complex)
Solution: 0.138

Data credit: patent EP1038880B1
